- TARGET OR SYSTEM: Vhr1 (UniProt P40522)
- Sequence: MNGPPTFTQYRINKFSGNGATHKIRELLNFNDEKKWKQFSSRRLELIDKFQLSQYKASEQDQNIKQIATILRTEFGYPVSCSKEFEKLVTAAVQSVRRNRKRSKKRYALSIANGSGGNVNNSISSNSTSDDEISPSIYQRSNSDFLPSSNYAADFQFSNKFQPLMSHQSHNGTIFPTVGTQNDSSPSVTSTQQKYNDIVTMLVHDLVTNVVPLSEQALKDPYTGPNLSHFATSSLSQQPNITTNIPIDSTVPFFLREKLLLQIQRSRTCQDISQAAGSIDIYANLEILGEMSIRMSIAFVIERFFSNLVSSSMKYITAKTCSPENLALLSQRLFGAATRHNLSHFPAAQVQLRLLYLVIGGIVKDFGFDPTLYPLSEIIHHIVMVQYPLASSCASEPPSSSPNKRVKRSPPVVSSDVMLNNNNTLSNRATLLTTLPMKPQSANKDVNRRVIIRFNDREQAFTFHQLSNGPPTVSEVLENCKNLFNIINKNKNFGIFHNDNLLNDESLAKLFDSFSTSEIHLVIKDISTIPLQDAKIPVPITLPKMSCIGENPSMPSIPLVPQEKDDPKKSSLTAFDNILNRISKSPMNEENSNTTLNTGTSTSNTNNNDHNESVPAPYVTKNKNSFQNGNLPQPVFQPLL
- ASSAY TEXT: PBM E-score (8-mer binding enrichment) (E-score (-0.5 to 0.5)); higher = stronger / more preferred TF binding
- COND: protein concentration: 200 nM; construct: GST-full length
Over roughly 33,000 sequences, “E-score (-0.5 to 0.5)” has its median near -0.012; the highest 2% begin near 0.27. This excerpt belongs to a sample that is enriched for the highest values.
# PBM E-score >= 0.1 gives t, anything below gives f

MONOMER SEQUENCE: CTAAGGAC
TARGET OR SYSTEM: Vhr1 (UniProt P40522)
LABEL CLASS: f
//
MONOMER SEQUENCE: CCCATTCG
TARGET OR SYSTEM: Vhr1 (UniProt P40522)
LABEL CLASS: f
//
MONOMER SEQUENCE: AGTCAGGG
TARGET OR SYSTEM: Vhr1 (UniProt P40522)
LABEL CLASS: t
//
MONOMER SEQUENCE: ACTCAGGG
TARGET OR SYSTEM: Vhr1 (UniProt P40522)
LABEL CLASS: t
//
MONOMER SEQUENCE: AGTCAGGC
TARGET OR SYSTEM: Vhr1 (UniProt P40522)
LABEL CLASS: t
//
MONOMER SEQUENCE: CACTGCCG
TARGET OR SYSTEM: Vhr1 (UniProt P40522)
LABEL CLASS: t
//
MONOMER SEQUENCE: CAATCAAG
TARGET OR SYSTEM: Vhr1 (UniProt P40522)
LABEL CLASS: f
//
MONOMER SEQUENCE: AGTCAGTA
TARGET OR SYSTEM: Vhr1 (UniProt P40522)
LABEL CLASS: t
//
MONOMER SEQUENCE: AGTCAGTC
TARGET OR SYSTEM: Vhr1 (UniProt P40522)
LABEL CLASS: t
//
MONOMER SEQUENCE: AGGATGAG
TARGET OR SYSTEM: Vhr1 (UniProt P40522)
LABEL CLASS: t
//
MONOMER SEQUENCE: ACTCAGGC
TARGET OR SYSTEM: Vhr1 (UniProt P40522)
LABEL CLASS: t
//
MONOMER SEQUENCE: AAATCATG
TARGET OR SYSTEM: Vhr1 (UniProt P40522)
LABEL CLASS: t
//
MONOMER SEQUENCE: CTGATGAC
TARGET OR SYSTEM: Vhr1 (UniProt P40522)
LABEL CLASS: t
//
MONOMER SEQUENCE: AAATCATT
TARGET OR SYSTEM: Vhr1 (UniProt P40522)
LABEL CLASS: f
//
MONOMER SEQUENCE: AAATCATA
TARGET OR SYSTEM: Vhr1 (UniProt P40522)
LABEL CLASS: t
//
MONOMER SEQUENCE: ATTCAGGG
TARGET OR SYSTEM: Vhr1 (UniProt P40522)
LABEL CLASS: t
//
MONOMER SEQUENCE: AAATGGAC
TARGET OR SYSTEM: Vhr1 (UniProt P40522)
LABEL CLASS: f
//
MONOMER SEQUENCE: CGTCAGGA
TARGET OR SYSTEM: Vhr1 (UniProt P40522)
LABEL CLASS: f
//
MONOMER SEQUENCE: GGGATGAA
TARGET OR SYSTEM: Vhr1 (UniProt P40522)
LABEL CLASS: f
//
MONOMER SEQUENCE: ATGATGAC
TARGET OR SYSTEM: Vhr1 (UniProt P40522)
LABEL CLASS: t
//
MONOMER SEQUENCE: AGGATGAT
TARGET OR SYSTEM: Vhr1 (UniProt P40522)
LABEL CLASS: t
//
MONOMER SEQUENCE: CGTCAGGC
TARGET OR SYSTEM: Vhr1 (UniProt P40522)
LABEL CLASS: f

---

- TARGET OR SYSTEM: Vhr1 (UniProt P40522)
- Sequence: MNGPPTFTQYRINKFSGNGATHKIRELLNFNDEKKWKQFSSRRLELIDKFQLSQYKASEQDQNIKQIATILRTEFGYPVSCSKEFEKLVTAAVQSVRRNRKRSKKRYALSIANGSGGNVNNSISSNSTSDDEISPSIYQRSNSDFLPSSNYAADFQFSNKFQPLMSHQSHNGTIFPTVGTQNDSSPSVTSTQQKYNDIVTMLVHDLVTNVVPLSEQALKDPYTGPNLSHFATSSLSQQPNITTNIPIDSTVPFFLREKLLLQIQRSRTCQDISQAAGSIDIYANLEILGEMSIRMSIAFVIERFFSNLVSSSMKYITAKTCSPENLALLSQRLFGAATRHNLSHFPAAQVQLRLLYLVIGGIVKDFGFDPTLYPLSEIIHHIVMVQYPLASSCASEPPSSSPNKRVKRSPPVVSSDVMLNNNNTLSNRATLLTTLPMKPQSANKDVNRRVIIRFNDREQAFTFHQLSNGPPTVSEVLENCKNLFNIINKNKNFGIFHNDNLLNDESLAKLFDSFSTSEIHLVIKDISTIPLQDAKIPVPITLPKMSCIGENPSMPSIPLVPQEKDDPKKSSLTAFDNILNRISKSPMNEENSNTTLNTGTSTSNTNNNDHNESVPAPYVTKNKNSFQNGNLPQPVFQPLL
- ASSAY TEXT: PBM E-score (8-mer binding enrichment) (E-score (-0.5 to 0.5)); higher = stronger / more preferred TF binding
- COND: protein concentration: 200 nM; construct: GST-full length
Whole data set: some 33,000 sequences, median “E-score (-0.5 to 0.5)” near -0.012, cut for the highest 2% near 0.27. The full list was thinned out, with the highest values kept by preference.
Category scheme (PBM E-score): 1 (below 0.05), 2 (0.05 to below 0.2), 3 (0.2 or more)

MONOMER SEQUENCE: CCCCACCG
TARGET OR SYSTEM: Vhr1 (UniProt P40522)
LABEL CLASS: 2
//
MONOMER SEQUENCE: CCACCAAA
TARGET OR SYSTEM: Vhr1 (UniProt P40522)
LABEL CLASS: 1
//
MONOMER SEQUENCE: CCCCACCA
TARGET OR SYSTEM: Vhr1 (UniProt P40522)
LABEL CLASS: 2
//
MONOMER SEQUENCE: ACCCTCCC
TARGET OR SYSTEM: Vhr1 (UniProt P40522)
LABEL CLASS: 3
//
MONOMER SEQUENCE: CAACAATC
TARGET OR SYSTEM: Vhr1 (UniProt P40522)
LABEL CLASS: 3
//
MONOMER SEQUENCE: CCCGCCGA
TARGET OR SYSTEM: Vhr1 (UniProt P40522)
LABEL CLASS: 1
//
MONOMER SEQUENCE: CATCGATG
TARGET OR SYSTEM: Vhr1 (UniProt P40522)
LABEL CLASS: 3
//
MONOMER SEQUENCE: GCTGCGCC
TARGET OR SYSTEM: Vhr1 (UniProt P40522)
LABEL CLASS: 1
//
MONOMER SEQUENCE: CCCCACTC
TARGET OR SYSTEM: Vhr1 (UniProt P40522)
LABEL CLASS: 2
//
MONOMER SEQUENCE: ACCCACCT
TARGET OR SYSTEM: Vhr1 (UniProt P40522)
LABEL CLASS: 2
//
MONOMER SEQUENCE: AGAAGCGC
TARGET OR SYSTEM: Vhr1 (UniProt P40522)
LABEL CLASS: 2
//
MONOMER SEQUENCE: CCCGCCGC
TARGET OR SYSTEM: Vhr1 (UniProt P40522)
LABEL CLASS: 3
//
MONOMER SEQUENCE: CCCCTCCC
TARGET OR SYSTEM: Vhr1 (UniProt P40522)
LABEL CLASS: 2
//
MONOMER SEQUENCE: CCCCACCC
TARGET OR SYSTEM: Vhr1 (UniProt P40522)
LABEL CLASS: 3
//
MONOMER SEQUENCE: ACTGCGAG
TARGET OR SYSTEM: Vhr1 (UniProt P40522)
LABEL CLASS: 2
//
MONOMER SEQUENCE: CTCAACTA
TARGET OR SYSTEM: Vhr1 (UniProt P40522)
LABEL CLASS: 2
//
MONOMER SEQUENCE: ATTTTATC
TARGET OR SYSTEM: Vhr1 (UniProt P40522)
LABEL CLASS: 1
//
MONOMER SEQUENCE: AATCGATG
TARGET OR SYSTEM: Vhr1 (UniProt P40522)
LABEL CLASS: 2
//
MONOMER SEQUENCE: ACCCTCCT
TARGET OR SYSTEM: Vhr1 (UniProt P40522)
LABEL CLASS: 1
//
MONOMER SEQUENCE: AAGCTGCA
TARGET OR SYSTEM: Vhr1 (UniProt P40522)
LABEL CLASS: 1
//
MONOMER SEQUENCE: AGAGCGAC
TARGET OR SYSTEM: Vhr1 (UniProt P40522)
LABEL CLASS: 1
//
MONOMER SEQUENCE: GTAGCGAA
TARGET OR SYSTEM: Vhr1 (UniProt P40522)
LABEL CLASS: 1
